- target_desc: Carbonyl reductase [NADPH] 3 (Homo sapiens) (UniProt O75828)
- Sequence (O75828 whole entry, looked up): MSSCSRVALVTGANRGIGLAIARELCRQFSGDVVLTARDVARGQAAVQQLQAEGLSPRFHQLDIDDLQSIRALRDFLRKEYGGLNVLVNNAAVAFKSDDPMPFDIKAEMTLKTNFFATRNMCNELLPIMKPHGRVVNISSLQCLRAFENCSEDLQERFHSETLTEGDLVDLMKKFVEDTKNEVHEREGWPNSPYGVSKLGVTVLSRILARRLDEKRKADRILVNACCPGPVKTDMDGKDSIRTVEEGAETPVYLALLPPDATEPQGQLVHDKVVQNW
- measurement_description: ligand binding to human carbonyl reductase 3 – biophysical, DSF, SYPRO orange, recombinant protein (AID 512)
- experimental_conditions: recombinant CBR3, DSF SYPRO orange thermal shift; at 10 µM; buffer 10 mM HEPES; pH 7.5; NaCl 150 mM; protein 2 µM; stronger effect = higher value
metric_name: Tm shift

Example compounds with recorded Tm shift:
1. O=c1oc2cc(O)ccc2c2oc3cc(O)ccc3c12	3.1 Celsius
2. O=C1C(=O)C(c2ccc(O)cc2O)Oc2cc(O)cc(O)c21 (stereo not given)	2.2 Celsius

Reported Carbonyl reductase [NADPH] 3 (Homo sapiens) (UniProt O75828) Tm shift for item O=C1C(=O)C(c2ccc(O)cc2)Oc2cc(O)cc(O)c21 (stereo not given) was 2.1 Celsius

Reported Carbonyl reductase [NADPH] 3 (Homo sapiens) (UniProt O75828) Tm shift for item NC(=O)c1ccc[n+](C2OC(COP(=O)(O)OP(=O)(O)OCC3OC(n4cnc5c(N)ncnc54)C(OP(=O)(O)O)C3O)C(O)C2O)c1 (stereo not given) was 4.4 Celsius

Reported Carbonyl reductase [NADPH] 3 (Homo sapiens) (UniProt O75828) Tm shift for item CCN(CC)C(=S)SSC(=S)N(CC)CC was 2.5 Celsius
